# Tested on: NCI-H460 lung
# TEST SUMMARY: NCI-60 one-dose screen, 48 h
# EXPERIMENTAL CONTEXT: 10 µM unless noted
The panel holds about 83,000 compounds, 20% with a hit somewhere; the sample as a whole holds those more often. Activity calls are given as the source filed them. Rule for the calls: active = growth percent below 10; inactive = the rest.
Select the matching outcome among t (active), f (inactive)

Worked cases, answers included:
COMPOUND	CATEGORY
Nc1ccc(Nc2nccc(-c3ccc4ccccc4c3)n2)cc1	f
O=[N+]([O-])c1cccc(-c2nc3sccn3c2-c2ccnc(NCCCNS(=O)(=O)c3cccc(F)c3)n2)c1	f
Cc1ccc(-c2nc(/C=N/Nc3cc(C)nc4ccc(Br)cc34)c(C)o2)cc1	t

Incoming: Would you mind telling me which call this test gave O=C1CC(c2nc3ccccc3s2)CN1C1CCCCC1 (stereo not given) ?
Outgoing: f

Incoming: Would you mind telling me which call this test gave COCCCNc1nc(NC(=O)c2ccc(F)cc2C)cc(-c2cccnc2)n1 ?
Outgoing: f

Incoming: Would you mind telling me which call this test gave COc1ccc(CNc2nccnn2)cc1 ?
Outgoing: f

Incoming: Would you mind telling me which call this test gave O=c1cc(-c2ccccc2)[nH]c2ccccc12 ?
Outgoing: f

Incoming: Would you mind telling me which call this test gave C=C1CC[C@@H]2[C@](C)(COC(C)=O)[C@H](OC(C)=O)CC[C@@]2(C)[C@@H]1CC(Nc1ccc(S(=O)(=O)Nc2nc(C)cc(C)n2)cc1)C1=CCOC1=O (stereo not given in full) ?
Outgoing: f

Incoming: Would you mind telling me which call this test gave COc1ccc(/C=c2/c(=O)[nH]c3nc4sc(C)c(C)c4c(=O)n23)cc1 ?
Outgoing: f

Incoming: Would you mind telling me which call this test gave CCOC(=S)SCc1ccc(Cl)cc1 ?
Outgoing: f

Incoming: Would you mind telling me which call this test gave C=C1C(=O)O[C@H]2[C@H]1CC/C(Cn1cc(Cn3ccc4cc(Cl)ccc43)nn1)=C\CC[C@@]1(C)O[C@@H]21 ?
Outgoing: f

---

# Tested on: U251 CNS
# TEST SUMMARY: NCI-60 one-dose screen, 48 h
# EXPERIMENTAL CONTEXT: 10 µM unless noted
Compounds without any hit were thinned out: in the full panel of roughly 83,000, 20% have a hit. Activity calls are given as the source filed them. The calls were made as follows: active = growth percent below 10; inactive = the rest.
Select the matching outcome among yes = active, no = inactive

Worked cases, answers included:
> print(dat)
                                    compound  category
 1  Nc1c(C(=O)Nc2ccccc2Cl)sc2nc3c(cc12)CCCCCC3        no
 2               OCCNCCNc1c2ccccc2nc2ccccc12        no
 3                          O=C(O)c1cccnc1Br        no
 4  Nc1nc2c(c3ncccc13)C(c1ccc(Cl)c(Cl)c1)Cc1ncccc1-2 (configuration not stated)        no
 5  O=C(CCCCN1CCOCC1)Nc1ccc(Cn2nnc3c2C(=O)c2nnn(Cc4ccc(NC(=O)CCCCN5CCOCC5)cc4)c2C3=O)cc1       yes
 6  Cc1nn(-c2nc3ccccc3[nH]2)c2c1C(c1ccc3c(c1)OCO3)CC(=O)N2 (configuration not stated)        no
 7    CCCCN(CCCC)Cc1c(C)[nH]c2cc(OC)ccc2c1=O        no
 8  Cc1cc2c(cc1C)NC1=C(N2)OC(c2c3ccccc3cc3ccccc23)C1=O (configuration not stated)       yes
 9  CCN(CC)CCCC(C)Nc1ccnc2c(OC)cccc12 (configuration not stated)        no
10  Cn1cc(-c2nc(-c3c[nH]c4ccccc34)cs2)c2cccnc21        no

Incoming: Would you mind telling me which call this test gave CCCN(CCC)CN(CCC)CCC ?
Outgoing: no

Incoming: Would you mind telling me which call this test gave COc1ccc(N(Cc2cc(OC)c(OC)c(OC)c2)C2OC(=O)c3ccccc32)cc1 (configuration not stated) ?
Outgoing: no

Incoming: Would you mind telling me which call this test gave C=C1C(=O)O[C@H]2[C@H]1CC/C(Cn1cc(Cn3ccc4cc(Cl)ccc43)nn1)=C\CC[C@@]1(C)O[C@@H]21 ?
Outgoing: no
